What IC50 was measured for each of the following?
# assay.procedure: In vitro for the binding affinity against sigma receptor by using [3H]DTG as radioligand in guinea pig cerebellum
I only need the number, in nM, no unit after it.

IC50 in this record for `Clc1ccc(CN2CC[C@H]3c4ccccc4CC[C@H]3C2)cc1` : 4.7

Entry `COc1ccc(CN2CC[C@H]3c4ccccc4CC[C@H]3C2)cc1` — recorded IC50 = 2

Form: compound = c1ccc2c(c1)CC[C@H]1CN(C3[C@H]4C[C@@H]5C[C@@H](C[C@H]3C5)C4)CC[C@@H]21 (some centres not stated) ; IC50 = 2.2

The compound identified as `CCCCN1CC[C@@H]2c3ccccc3CC[C@H]2C1` registered its IC50 at 3.1

Lab note: `c1csc(CN2CC[C@H]3c4ccccc4CC[C@H]3C2)c1` gave IC50 of 7.1

Record `c1ccc2c(c1)CC[C@H]1CN(C34C[C@H]5C[C@@H](C3)C[C@@H](C4)C5)CC[C@@H]21` , field IC50: 2.3

The compound identified as `CN1CC[C@@H]2c3ccccc3CC[C@H]2C1` registered its IC50 at 447

`c1ccc(CN2CC[C@H]3c4ccccc4CC[C@H]3C2)nc1` has a reported IC50 of 17

Lab book: IC50 of `C=CCN1CC[C@H]2c3ccccc3CC[C@H]2C1` noted as 4.6

For `O=[N+]([O-])c1ccc(CN2CC[C@H]3c4ccccc4CC[C@H]3C2)cc1` the compound record lists IC50 as 8.7

Please fill in: IC50 reported for `CCCN1CCC2=C(CCc3ccccc32)C1` = 21

The compound identified as `CCCCN1CC[C@H]2c3ccccc3CC[C@H]2C1` registered its IC50 at 6.3
